- ASSAY_DETAILS: chemical genetic growth profiling, strain panel (AID 1159580);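 also: tested at 20 µM; growth read once vehicle control cultures reached saturation at 30 °C; lower values mean less growth of the strain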
- STUDY_CONDITIONS: S. cerevisiae deletion strains, growth OD, locus YLR258W, strain gsy2
Screen size: about 5,500 compounds; about 2,000 (36%) were called active. About 18% were inconclusive and are not listed. Rule as the data show it: active = normalized growth mostly below about 0.91 (no sharp cut-off); inconclusive = no clear call, values can overlap the other calls; inactive = mostly above about 0.92. Some of the results follow.
Write down the outcome that applies. Available outcomes: y = active, n = inactive

Per the records of this test, what outcome belongs to CC(=O)Oc1c2c(c3c(c1CC=C(C)C)O[C@]14C(=C[C@@H]5CC1C(C)(C)OC4(C/C=C(\C)C(=O)O)C5=O)C3=O)OC(C)(CCC=C(C)C)C=C2 (stereo partly specified) ? n

Per the records of this test, what outcome belongs to C[C@]12CCC3c4ccc(O)cc4CCC3C1CCC2=O (stereo partly specified) ? n

Per the records of this test, what outcome belongs to COC(=O)/C(C)=C\CC12OC(C)(C)C3CC(C=C4C(=O)c5c(OC)c6c(c(CC=C(C)C)c5OC431)OC(C)(CCC=C(C)C)C=C6)C2=O (stereo unspecified) ? n

Per the records of this test, what outcome belongs to CC(=O)Oc1c2c(c(CC=C(C)C)c3c1C(=O)C1=C[C@@H]4CC5C(C)(C)OC(C/C=C(\C)C(=O)O)(C4=O)[C@@]15O3)OC(C)(CCC=C(C)C)C=C2 (stereo partly specified) ? n

====

- ASSAY_DETAILS: chemical genetic growth profiling, strain panel (AID 1159580);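 also: tested at 20 µM; growth read once vehicle control cultures reached saturation at 30 °C; lower values mean less growth of the strain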
- STUDY_CONDITIONS: S. cerevisiae deletion strains, growth OD, locus YOR083W, strain WHI5 (second series)
The campaign covered roughly 5,500 compounds. About 2,000 (36%) were called active. Another 18% or so got no clear call; they are omitted. Cut-off read from the data, not from the text of the source: active = normalized growth mostly below about 0.91 (no sharp cut-off); inconclusive = no clear call, values can overlap the other calls; inactive = mostly above about 0.92. This is one part of the list.
Write down the outcome that applies. Available outcomes: active, inactive

COMPOUND	ASSIGNED_CATEGORY
CCCCS(=N)(=O)CC[C@H](N)C(=O)O (stereo partly drawn)	inactive
CCCN(CCC)C1Cc2cc(OC)c(OC)cc2C1	inactive
NC(N)=NCCSSCCN=C(N)N	inactive
COc1cc2nc(N3CCN(C(=O)OCc4ccccc4)C(C(=O)NC(C)(C)C)C3)nc(N)c2cc1OC (stereo not drawn)	inactive
CC(C)=CCC/C(C)=C/CC/C(C)=C/CSc1ccccc1C(=O)O	active
CC(C)N(CCC(=O)c1ccc2ccccc2c1)Cc1ccccc1	active
C[C@]12CC[C@@H]3c4ccc(O)cc4CC[C@H]3[C@@H]1CCC2=O	inactive
COc1cc2c(CCNC(C)=O)c[nH]c2cc1O	inactive
COc1ccc(NC(=O)c2ccc(-c3ccc(-c4noc(C)n4)cc3C)cc2)cc1N1CCN(C)CC1	inactive
Cc1ccccc1/C=C/C1=NCCN1	inactive

Per the records of this test, what outcome belongs to CC(O)C(C)OC(=O)[C@@H]1C[C@@H]2c3cccc4c3c(cn4C(C)C)C[C@H]2N(C)C1 (stereo partly drawn) ? inactive

Per the records of this test, what outcome belongs to CCCn1c(=O)c2[nH]c(C3CCCC3)nc2n(CCC)c1=O ? inactive

Per the records of this test, what outcome belongs to NCCCCNCCCN ? inactive

Per the records of this test, what outcome belongs to COc1cc2nc(N3CCN(C(=O)C4COc5ccccc5O4)CC3)nc(N)c2cc1OC (stereo not drawn) ? inactive

Per the records of this test, what outcome belongs to CNc1ccc2oc(C[C@H]3O[C@@]4(CC[C@H]3C)O[C@H]([C@H](C)C(=O)c3ccc[nH]3)[C@H](C)C[C@H]4C)nc2c1C(=O)O ? inactive

Per the records of this test, what outcome belongs to NC(=O)c1ncn(C2OC(CO)C(O)C2O)n1 (stereo not drawn) ? inactive

Per the records of this test, what outcome belongs to COc1ccc2c(c1)c(CC(=O)O)c(C)n2Cc1ccc(Cl)cc1 ? inactive

Per the records of this test, what outcome belongs to Cc1nc(-c2ccc(-c3ccc(C(=O)N4CCc5cc6c(cc54)C4(CCN(C)CC4)CO6)cc3)c(C)c2)no1 ? active

Per the records of this test, what outcome belongs to c1ccc2c(c1)[I+]c1ccccc1-2 ? active

Per the records of this test, what outcome belongs to CC1(C)C(=O)N(CCN2CCC(C(=O)c3ccc(F)cc3)CC2)c2ccccc21 ? inactive

Per the records of this test, what outcome belongs to CSc1ccc(C(=O)c2[nH]c(=O)[nH]c2C)cc1 ? inactive

Per the records of this test, what outcome belongs to C[C@]12CCC3C(CC[C@H]4C[C@H](O)CC[C@]34C)C1CC[C@@H]2C(=O)CO (stereo partly drawn) ? inactive

Per the records of this test, what outcome belongs to NC(CP(=O)(O)O)C(=O)O (stereo not drawn) ? inactive

Data provenance: PubChem BioAssay AID1159580
